Form field: Kd (one value per entry).
Target: T1, human ADAMTS5 (human, UniProt Q9UNA0 262-622, limits assumed)
T1 construct: Octet and ELISA used 'recombinant human ADAMTS5'; also called recombinant human ADAMTS5; ADAMTS5 (R&D Systems 2198-AD)
T1 sequence: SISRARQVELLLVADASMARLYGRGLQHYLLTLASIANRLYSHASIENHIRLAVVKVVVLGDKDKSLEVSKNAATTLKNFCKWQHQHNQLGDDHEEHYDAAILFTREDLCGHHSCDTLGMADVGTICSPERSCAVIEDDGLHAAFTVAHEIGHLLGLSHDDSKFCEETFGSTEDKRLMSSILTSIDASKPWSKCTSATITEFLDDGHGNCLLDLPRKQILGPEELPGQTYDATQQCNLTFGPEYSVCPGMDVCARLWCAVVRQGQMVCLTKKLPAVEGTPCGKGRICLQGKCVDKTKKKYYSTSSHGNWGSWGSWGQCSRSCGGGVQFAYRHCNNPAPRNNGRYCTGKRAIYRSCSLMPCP
Assay: Octet QK, purified murine mAb
Give just the number in nM; leave the unit off.

Look over these answered cases.
BINDER	Kd [nM]
7B4.1E11 (antibody, IgG1, V domains shown, also called Murine 7B4.1E11) VH: EVKLEESGGGLVQPGGSMKLSCAASGFTSSDAWMDWVRQSPEKGLEWVAEIRNKANNHARHYAESVKGRFTISRDDSKSSVYLQMNSLRAEDSGIYYCTRTYYYGSSYGYCDVWGTGTTVTVSS VL: DIQMTQSPASLSASVGETVTITCRTSENIYSYLAWYQQKQGKSPQLLVYNAKTLAEGVPSRFSGSGSGTQFSLKINSLQPEDFGSYSCQHHYGTPWTFGGGTKLEIKR	0.899
3A12.1D7 (antibody, V domains shown, Murine monoclonal antibody from a hybridoma) VH: EVKFEESGGGLVQPGGSMKLSCAASGFIFSDAWMDWVRQSPEKGLEWVAEIRHKANDYAIFYDESVKGRFTISRDDSKSIVYLQMNNLRPEDTGIYYCTSPFAYWGQGTLVTVSA VL: DIVMTQSQKFMSVTVGDRVSITCKASQSVGTTIVWYQQKPGQSPKLLIYSASNRHTGVPDRFTGSGSGTDFILTISNVQSEDLADYFCQQYSSYPFTFGSGTKLEIKR	0.0824
2D3.1D4 (antibody, V domains shown, Murine monoclonal antibody from a hybridoma) VH: EVKLEESGGGLVQPGGSMKLSCAASGITFSDAWMDWVRQSPEKGLEWVADIRNTANNHATFYAESVKGRFTISRDDSKSTVYLQMNTLRPEDTGIYYCTSPFAYWGQGTLVTVSA VL: DIVMTQSQKFMSTTVGDRVSITCKASQNVGTAVVWFQQKPGQSPKLLIYSASNRYTRVPDRFTGSGSGTDFTLTISNVQSEDLADYFCQQYVNYPFTFGSGTKLEIKR	0.0862

Q: Need Kd, item 5F10.1H6 (antibody, V domains shown, Murine monoclonal antibody from a hybridoma) VH: EVKLEESGGGLVQPGGSMKLSCAASGFTFSDAWMDWVRQSPEKGLEWVAEIRHKANDHAIFYDESVKGRFTISRDDSKSIVYLQMNSLRPEDTGIYYCTSPFAYWGQGTLVTVSA VL: DIVMTQSQRFMSVTVGDRVSITCKASQSVGTTIVWYQQKPGQSPKLLIYSASTRYTGVPDRFTGGGSGTDFILTINNVQSEDLADYFCQQYSSYPFTFGSGTKLEIKR
A: 0.126

Q: Also 12F4.1H7 (antibody, IgG2, V domains shown, also called Murine 12F4.1H7) VH: EVKLEESGGGLVQPGGSMKLSCTASGFTFSDAWMDWVRQSPEKGLEWVAEIRHKANDHAIFYDESVKGRFTISRDDSKNIVYLQMNSLRPEDTGIYYCTSPFAYWGQGTLVTVSA VL: DIVMTQSQKFMSVTVGDRVSITCKASQSVGTTIVWYQQKPGQSPKLLIYSASNRHTGVPDRFTGSGSGTDFILTINNVQSEDLADYFCQQYTSYPFTFGSGTKLEIKR , if possible.
A: 0.436

Where do these numbers come from? They come from patent US20120095193A1.
